Assay: gradient 5% acetonitrile 3 min, to 50% in 2 min, to 85% in 15 min, held 3 min, 100 µL/min
Settings: column: Zorbax Extend-C18 2.1 x 50 mm; eluents: water / acetonitrile, 0.1% formic acid
testReadout: RP-LC retention time (s)

In [3]: df
Out[3]:
                                  cpdsmiles  endpointresult
0            Cc1ccc(-n2cc(C(=O)O)nn2)c(F)c1             705
1  O=C(CN1C(=O)COc2ccc(C(=O)N3CCc4ccccc4C3)cc21)N1CCCC1             763
2              CCC(=O)n1nc(-c2ccccc2Cl)nc1N             837

###

Assay: gradient 5% acetonitrile 3 min, to 50% in 2 min, to 85% in 15 min, held 3 min, 100 µL/min
Settings: column: Zorbax Extend-C18 2.1 x 50 mm; eluents: water / acetonitrile, 0.1% formic acid
The entries below are paired with their reported RP-LC retention time.
testReadout: RP-LC retention time

>>> print(df.to_string())
                                    molecule  endpointresult
 0  O=C(NCc1ccc(N2CCOCC2)cc1)C1CCCN(c2cnc3nccnc3c2)C1 (configuration not stated)           728 s
 1  O=C(Cc1ccc(NC(=O)Nc2ccccc2Cl)cc1)NCC(F)(F)F           696 s
 2  COc1ccc(N2CCN(c3cc(SCC(=O)NCC4CCCO4)ncn3)CC2)cc1 (configuration not stated)           713 s
 3  COC(=O)CC1=CC(SCC(=O)Nc2ccc(Cl)cc2F)=Nc2ccccc2N1           910 s
 4  COC[C@@H]1OCCN(S(=O)(=O)c2cc(OC)ccc2OC)[C@H]1c1ccccc1           896 s
 5  Cc1sc(NC(=O)c2cccc(Cn3cc(Br)cn3)c2)nc1-c1ccccc1          1190 s
 6  O=C(Cn1cnc2ccccc2c1=O)NCCn1nc(-c2cccs2)ccc1=O           622 s
 7  O=C(CCn1cnc2cc(-c3noc(Cc4cccc(F)c4)n3)ccc21)N1CCCC1           726 s
 8  Cc1ccc(OCC(=O)Nc2cncc(-c3nc4ccccc4o3)c2)cc1          1010 s
 9  O=C(Nc1cccc(Br)c1)N1CCN(Cc2nc3cccnc3n2-c2ccccc2)CC1           703 s
10   CN1C(=O)CO[C@@H](C(=O)O)[C@@H]1c1ccccc1           621 s
11  COc1ccc(OC)c(NC(=O)N2CCc3c(c(C(=O)N4CCCC4)nn3C)C2)c1           718 s
12  Cc1cccc(C2CC(=O)c3c(C)nc(N4CCN(CCO)CC4)nc3C2)c1 (configuration not stated)           665 s
13  O=C(Nc1nccs1)C1CCN(C(=O)c2ccc([N+](=O)[O-])o2)CC1           658 s
14  CCc1ccc(NC(=O)Cn2c(C)nc3cc4c(cc32)OCCO4)cc1           668 s
15  Cc1cc(C)c2c(N3CCSCC3)nc(C(=O)NC(C)c3ccccn3)nc2n1 (configuration not stated)           618 s
16          CCCNC(=O)c1cc(-c2ccc(Cl)cc2)cn1C           957 s
17  CCc1ccc(NC(=O)C2CCN(S(=O)(=O)c3cn(CC)cn3)CC2)cc1           794 s
18  Cc1ccc(S(=O)(=O)c2cnc(N3CCN(c4cccc(Cl)c4)CC3)nc2N)cc1          1190 s
19  Cc1cc(C)cc(NC(=O)CN2CCC(C(=O)NC3CC3)CC2)c1           564 s
20  COc1ccc(-c2noc(Cc3nnc(-c4cccc(F)c4)o3)n2)cc1          1020 s
21  COc1cccc(N2CCN(CC(=O)N3CCC(C(N)=O)CC3)CC2)c1           582 s
22        CC(C)c1cc(C(=O)Nc2ccccc2)nc2ccnn12          1080 s
23  COc1ccc(C2C(C(=O)O)c3ccccc3C(=O)N2C)cc1 (configuration not stated)           688 s
24     Cn1nc(-c2cccc(NC(=O)c3cccs3)c2)ccc1=O           678 s
25  O=C(NCCC1CCN(C(=O)Nc2ccc(F)cc2F)CC1)C1CC1           691 s
26  Cc1ccc(S(=O)(=O)N2CCC(n3c(-c4ccco4)nc4cccnc43)C2)cc1 (configuration not stated)           863 s
